Values from ChEMBL document CHEMBL6078614

Tested on: Leishmania major
experimental_details: Antileishmanial activity against Leishmania major
Format: functional, organism-based
Could you please report measured IC50 for the items listed next?
Give bare numbers, in µM.

Some solved entries appear below for comparison.
O=[N+]([O-])c1ccc(-c2nnc(NCCCO)s2)o1	18
O=[N+]([O-])c1ccc(-c2nnc(N3CCC(O)CC3)s2)s1	27

Please examine the following record next.
Request: Kindly indicate its recorded IC50. Item: O=[N+]([O-])c1ccc(-c2nnc(N3CCC(O)CC3)s2)o1
Response: 68.9

###

Record form. Attribute: pIC50. Fill in for each entry.
experimental_details: Inhibition of Entamoeba histolytica O-acetylserine sulfhydrylase
experimental_parameters: read-out: IC50
Numbers only, as −log10 of the molar value.

Cc1c(OCC(F)(F)F)ccnc1C[S+]([O-])c1nc2ccc([N+](=O)[O-])cc2[nH]1 (configuration not stated)	4.82

Then there is this compound:
Request: Item O=[N+]([O-])c1ccc2nc([S+]([O-])Cc3ccccn3)[nH]c2c1 (configuration not stated) : provide pIC50
Response: 4.96

###

System: Trypanosoma cruzi
experimental_details: Antitrypanosomal activity against trypomastigote form of Trypanosoma cruzi Y assessed as inhibition of parasite viability incubated for 24 hrs by light microscopy
Format: functional, organism-based
metric_name: EC50 (µM)
Numbers only, in µM.

Request: Write down EC50 measured for item Cn1c(/C=C/C(=O)NO)ccc1/C=C/C(=O)c1cccc(Cl)c1
Response: 7

###

Tested on: Trypanosoma cruzi
experimental_details: Antitrypanosomal activity against trypomastigote form of Trypanosoma cruzi Y assessed as inhibition of parasite viability
Assay type: functional, organism-based
Assignment: determine reported IC50 for the given compounds.
One number for each entry, in nM.

Known results for compounds:
Brc1ccc(-n2cc(C3=NCCS3)cn2)cc1	2100
Clc1ccc(-n2cc(C3=NCCS3)cn2)c(Cl)c1	400

Below is a list of compounds. For each, state its recorded IC50.
1. Clc1ccc(-n2cc(C3=NCCS3)cn2)cc1Cl
2. CN1C(=N)N/C(=C/c2c[nH]c3cc(Br)ccc23)C1=O

Response:
1. 1900
2. 62000

###

Test system: Leishmania donovani
experimental_details: Antileishmanial activity against Leishmania donovani amastigotes infected in J774 macrophage assessed as inhibition of parasite growth incubated for 48 hrs by luciferase assay
Assay type: functional, organism-based
experimental_parameters: J774, 48 h
metric_name: IC50 (µM)
Answers are plain numbers, in µM.

O=C(Nc1nc2cc(Cl)ccc2o1)C(c1ccccc1)c1ccccc1	9.1

Request: Indicate its recorded IC50; the molecule in question is O=[N+]([O-])c1c(CS(=O)(=O)c2ccccc2)nc2c(Sc3ccc(Cl)cc3)cc(Cl)cn12
Response: 1.3

###

System: Leishmania major
experimental_details: Antileishmanial activity against Leishmania major
Type: functional, organism-based
Assignment: determine reported IC50 for the given molecules.
Answers are plain numbers, in µg/mL.

// solved cases for IC50 follow
Cc1ccc(C(=O)NC(=S)NCc2ccco2)cc1	38.5
COc1ccc(C(=O)NC(=S)Nc2nc(-c3ccccc3)c(C)s2)cc1	38.5

Then this molecule:
Request: Enter recorded IC50 with Leishmania major for Cc1sc(NC(=S)NC(=O)c2cccc(Cl)c2)nc1-c1ccccc1 here.
Response: 38.5
